I'd be grateful if you could share measured IC50 for these entries.
Target: Caspase-1 (Homo sapiens)
Sequence (P29466 120-297 limits assumed): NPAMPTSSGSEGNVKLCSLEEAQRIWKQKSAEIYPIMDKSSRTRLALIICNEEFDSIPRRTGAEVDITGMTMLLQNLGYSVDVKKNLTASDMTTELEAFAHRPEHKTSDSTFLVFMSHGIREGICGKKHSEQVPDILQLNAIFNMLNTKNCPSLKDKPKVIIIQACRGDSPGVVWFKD
Sequence (P29466 317-404 limits assumed): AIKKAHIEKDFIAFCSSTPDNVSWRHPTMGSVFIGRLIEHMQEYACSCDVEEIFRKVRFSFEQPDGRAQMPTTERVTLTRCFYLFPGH
Assay: Inhibition of human recombinant caspase-1 using AC-WEHD-AMC as substrate at Km after 20 mins by fluorescence assay
Conditions: read-out: pIC50 (converted)

Some entries whose results are on file:
For this compound ( CC(C)[C@H](NC(=O)c1ccc2ccccc2c1)c1ccc(C(=O)N[C@H]2CC(=O)OC2O)cn1 (stereo partly drawn) ), measured IC50 is 1260 nM

Entry Cc1cnc(Nc2ccc(C(=O)Nc3cn(C)c(=O)n(C(C)C(=O)N[C@H]4CC(=O)OC4O)c3=O)cc2)cn1 (stereo partly drawn) — recorded IC50 = 39.8 nM

Form field IC50, entry C[C@@H](C(=O)N[C@H]1CC(=O)OC1O)N1C(=O)CCC(NC(=O)c2ccc3ccccc3c2)C1=O (stereo partly drawn) : 1000 to 10000 nM

Please state IC50 for every compound in the list that follows.
1. CC(C)N(NC(=O)c1ccc2ccccc2c1)C(=O)C1CCC[C@H]1C(=O)N[C@H]1CC(=O)OC1O (stereo partly drawn)
2. C[C@@H](C(=O)N[C@H]1CC(=O)OC1O)N1C(=O)NC(NC(=O)c2ccc3ccccc3c2)C1=O (stereo partly drawn)
3. CC(C)N(NC(=O)c1ccc2ccccc2c1)C(=O)C1CNC[C@H]1C(=O)N[C@H]1CC(=O)OC1O (stereo partly drawn)
4. CC(C(=O)N[C@H]1CC(=O)OC1O)n1c(=O)c(NC(=O)c2ccc3ccccc3c2)cn(C)c1=O (stereo partly drawn)

1: 251 to 10000 nM; 2: 1000 to 10000 nM; 3: 251 to 10000 nM; 4: 501 nM

The recorded IC50 for CC(C)N(NC(=O)c1ccc2ccccc2c1)C(=O)C1CCCC[C@H]1C(=O)N[C@H]1CC(=O)OC1O (stereo partly drawn) is 251 to 10000 nM

Reference source for all entries: ChEMBL document CHEMBL4177758
